- Protocol Summary: total protein half-life in vivo (active degradation + dilution); higher = more stable protein
- Assay Context: wild type E. coli NCM3722; growth: N-lim chemostat; doubling time 6 h
Assay Metric: total protein half-life in vivo (h)
Only the number, expressed in h, is required.

*Q* Supply recorded total protein half-life in vivo for MNKTITALAIMMASFAANASVLPETPVPFKSGTGAIDNDTVYIGLGSAGTAWYKLDTQAKDKKWTALAAFPGGPRDQATSAFIDGNLYVFGGIGKNSEGLTQVFNDVHKYNPKTNSWVKLMSHAPMGMAGHVTFVHNGKAYVTGGVNQNIFNGYFEDLNEAGKDSTAIDKINAHYFDKKAEDYFFNKFLLSFDPSTQQWSYAGESPWYGTAGAAVVNKGDKTWLINGEAKPGLRTDAVFELDFTGNNLKWNKLAPVSSPDGVAGGFAGISNDSLIFAGGAGFKGSRENYQNGKNYAHEGLKKSYSTDIHLWHNGKWDKSGELSQGRAYGVSLPWNNSLLIIGGETAGGKAVTDSVLITVKDNKVTVQN here.
*A* 6.32

---

- Protocol Summary: total protein half-life in vivo (active degradation + dilution); higher = more stable protein
- Assay Context: E. coli NCM3722 delta-clpP delta-lon delta-hslV; growth: N-lim chemostat; doubling time 6 h
Item-by-item account of total protein half-life in vivo

*Q* Entry MQKQAELYRGKAKTVYSTENPDLLVLEFRNDTSAGDGARIEQFDRKGMVNNKFNYFIMSKLAEAGIPTQMERLLSDTECLVKKLDMVPVECVVRNRAAGSLVKRLGIEEGIELNPPLFDLFLKNDAMHDPMVNESYCETFGWVSKENLARMKELTYKANDVLKKLFDDAGLILVDFKLEFGLYKGEVVLGDEFSPDGSRLWDKETLEKMDKDRFRQSLGGLIEAYEAVARRLGVQLD [P0A7D7] needs its total protein half-life in vivo filled in; supply it.
*A* 4.82 h

Below: the item to evaluate.
*Q* Dear colleague, please send me the reported total protein half-life in vivo for MPWIQLKLNTTGANAEDLSDALMEAGAVSITFQDTHDTPVFEPLPGETRLWGDTDVIGLFDAETDMNDVVAILENHPLLGAGFAHKIEQLEDKDWEREWMDNFHPMRFGERLWICPSWRDVPDENAVNVMLDPGLAFGTGTHPTTSLCLQWLDSLDLTGKTVIDFGCGSGILAIAALKLGAAKAIGIDIDPQAIQASRDNAERNGVSDRLELYLPKDQPEEMKADVVVANILAGPLRELAPLISVLPVSGGLLGLSGILASQAESVCEAYADSFALDPVVEKEEWCRITGRKN [P0A8T1] when you can.
*A* 5.8 h

---

// total protein half-life in vivo lookup, one value per entry
- Protocol Summary: total protein half-life in vivo (active degradation + dilution); higher = more stable protein
- Assay Context: wild type E. coli NCM3722; growth: C-lim chemostat; doubling time 6 h
// return numeric value only (unit: h, not printed)

Answered examples (3):
*Q* Could you please provide reported total protein half-life in vivo for MTQYSSLLRGLAAGSAFLFLFAPTAFAAEQTVEAPSVDARAWILMDYASGKVLAEGNADEKLDPASLTKIMTSYVVGQALKADKIKLTDMVTVGKDAWATGNPALRGSSVMFLKPGDQVSVADLNKGVIIQSGNDACIALADYVAGSQESFIGLMNGYAKKLGLTNTTFQTVHGLDAPGQFSTARDMALLGKALIHDVPEEYAIHKEKEFTFNKIRQPNRNRLLWSSNLNVDGMKTGTTAGAGYNLVASATQGDMRLISVVLGAKTDRIRFNESEKLLTWGFRFFETVTPIKPDATFVTQRVWFGDKSEVNLGAGEAGSVTIPRGQLKNLKASYTLTEPQLTAPLKKGQVVGTIDFQLNGKSIEQRPLIVMENVEEGGFFGRVWDFVMMKFHQWFGSWFS ? Thanks!
*A* 6.19

*Q* Look up and state reported total protein half-life in vivo for MANRMILNETAWFGRGAVGALTDEVKRRGYQKALIVTDKTLVQCGVVAKVTDKMDAAGLAWAIYDGVVPNPTITVVKEGLGVFQNSGADYLIAIGGGSPQDTCKAIGIISNNPEFADVRSLEGLSPTNKPSVPILAIPTTAGTAAEVTINYVITDEEKRRKFVCVDPHDIPQVAFIDADMMDGMPPALKAATGVDALTHAIEGYITRGAWALTDALHIKAIEIIAGALRGSVAGDKDAGEEMALGQYVAGMGFSNVGLGLVHGMAHPLGAFYNTPHGVANAILLPHVMRYNADFTGEKYRDIARVMGVKVEGMSLEEARNAAVEAVFALNRDVGIPPHLRDVGVRKEDIPALAQAALDDVCTGGNPREATLEDIVELYHTAW [P0A9S1]
*A* 5.64

*Q* Report total protein half-life in vivo for MTSLYLASGSPRRQELLAQLGVTFERIVTGIEEQRQPQESAQQYVVRLAREKARAGVAQTAKDLPVLGADTIVILNGEVLEKPRDAEHAAQMLRKLSGQTHQVMTAVALADSQHILDCLVVTDVTFRTLTDEDIAGYVASDEPLDKAGAYGIQGLGGCFVRKINGSYHAVVGLPLVETYELLSNFNALREKRDKHDG
*A* 5.63

New cases:
*Q* Read off the recorded total protein half-life in vivo for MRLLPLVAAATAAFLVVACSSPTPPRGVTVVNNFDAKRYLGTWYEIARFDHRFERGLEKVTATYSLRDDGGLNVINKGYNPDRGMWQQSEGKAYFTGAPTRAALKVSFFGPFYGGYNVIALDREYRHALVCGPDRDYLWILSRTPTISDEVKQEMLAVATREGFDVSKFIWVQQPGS [P0A901]
*A* 5.41

*Q* Please give measured total protein half-life in vivo of the following entry: MSEFDAQRVAERIDIVLDILVAGDYHSAIHNLEILKAELLRQVAESTPDIPKAPWEI [A5A614]
*A* 3.77

*Q* Annotate the sequence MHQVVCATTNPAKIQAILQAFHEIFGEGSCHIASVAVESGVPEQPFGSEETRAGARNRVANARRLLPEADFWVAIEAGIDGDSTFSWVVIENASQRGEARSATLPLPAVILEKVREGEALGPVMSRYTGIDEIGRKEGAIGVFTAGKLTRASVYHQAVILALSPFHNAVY with its measured total protein half-life in vivo.
*A* 5.02
